biological target: PRKACB (human); experiment: KINOMEscan competition binding; conditions: compound 10.0 µM

{"SMI": "COc1ccc(N(C(=O)Oc2c(C)cccc2C)c2ccnc(Nc3ccc(N4CCN(C)CC4)cc3)n2)c(OC)c1", "MEASUREMENT UNIT": "%", "kinase still bound, per cent of control": 2.5}
{"SMI": "CNC(=O)c1ccc(Nc2cc(Nc3ccccc3S(=O)(=O)C(C)C)c3cc[nH]c3n2)nc1", "MEASUREMENT UNIT": "%", "kinase still bound, per cent of control": 13}
{"SMI": "CS(=O)(=O)N1CCN(Cc2cc3nc(-c4cccc5[nH]ncc45)nc(N4CCOCC4)c3s2)CC1", "MEASUREMENT UNIT": "%", "kinase still bound, per cent of control": 100}
{"SMI": "CN(C)C/C=C/C(=O)Nc1ccc(C(=O)Nc2cccc(Nc3nccc(-c4cccnc4)n3)c2)cc1", "MEASUREMENT UNIT": "%", "kinase still bound, per cent of control": 100}
{"SMI": "CNC(=O)c1cc(Oc2ccc(NC(=O)Nc3ccc(Cl)c(C(F)(F)F)c3)cc2)ccn1", "MEASUREMENT UNIT": "%", "kinase still bound, per cent of control": 100}

###

system: ABL1 (human), P00519 [Y253F]; experiment: KINOMEscan competition binding; settings: compound 10.0 µM
Measured kinase still bound, per cent of control of individual entries
READOUT: kinase still bound, per cent of control (%)

{"COMPOUND": "O=C(NC1CC1)c1cccc(-c2ccc3c(NC(=O)C4CC4)n[nH]c3c2)c1", "RECORDED VALUE": 60}
{"COMPOUND": "C=CC(=O)Nc1cccc(Nc2nc(N[C@H]3CC[C@H](N(C)C)CC3)nc3c2ncn3C(C)C)c1", "RECORDED VALUE": 62}
{"COMPOUND": "Nc1ccc(-c2ccc3ncc4ccc(=O)n(-c5cccc(C(F)(F)F)c5)c4c3c2)cn1", "RECORDED VALUE": 87}
{"COMPOUND": "COc1cc2ncnc(Nc3cccc(Cl)c3)c2cc1OC", "RECORDED VALUE": 2.3}
{"COMPOUND": "O=C1Nc2ccc(I)cc2/C1=C/c1cc(Br)c(O)c(Br)c1", "RECORDED VALUE": 81}
{"COMPOUND": "C=CC(=O)Nc1ccc(C(=O)c2sc(Nc3ccc(N4CCN(C)CC4)cc3OC)nc2N)cc1", "RECORDED VALUE": 97}
{"COMPOUND": "CN(C)C/C=C/C(=O)Nc1ccc(C(=O)Nc2cccc(Nc3nccc(-c4cccnc4)n3)c2)cc1", "RECORDED VALUE": 40}
{"COMPOUND": "C=CC(=O)Nc1cccc(Oc2nc(Nc3ccc(N4CCN(C)CC4)cc3OC)ncc2Cl)c1", "RECORDED VALUE": 100}
{"COMPOUND": "CCCS(=O)(=O)Nc1ccc(F)c(C(=O)c2c[nH]c3ncc(Cl)cc23)c1F", "RECORDED VALUE": 27}
{"COMPOUND": "COc1cc(C(=O)NC2CCN(C)CC2)ccc1Nc1ncc2c(n1)N(C1CCCC1)C(C)CC(=O)N2C (configuration not stated)", "RECORDED VALUE": 100}
{"COMPOUND": "N#C/C(=C1/Nc2ccccc2S1)c1ccnc(NCCc2cccnc2)n1", "RECORDED VALUE": 100}
{"COMPOUND": "COc1cc(C(=O)NC2CCN(C)CC2)ccc1Nc1ncc2c(n1)N(C1CCCC1)CCC(=O)N2C(C)C", "RECORDED VALUE": 100}

###

Measured kinase still bound, per cent of control of individual entries
target: MAP3K11 (human) (UniProt Q16584); assay: KINOMEscan competition binding; details: compound 10.0 µM
Sequence (Q16584 whole entry, looked up): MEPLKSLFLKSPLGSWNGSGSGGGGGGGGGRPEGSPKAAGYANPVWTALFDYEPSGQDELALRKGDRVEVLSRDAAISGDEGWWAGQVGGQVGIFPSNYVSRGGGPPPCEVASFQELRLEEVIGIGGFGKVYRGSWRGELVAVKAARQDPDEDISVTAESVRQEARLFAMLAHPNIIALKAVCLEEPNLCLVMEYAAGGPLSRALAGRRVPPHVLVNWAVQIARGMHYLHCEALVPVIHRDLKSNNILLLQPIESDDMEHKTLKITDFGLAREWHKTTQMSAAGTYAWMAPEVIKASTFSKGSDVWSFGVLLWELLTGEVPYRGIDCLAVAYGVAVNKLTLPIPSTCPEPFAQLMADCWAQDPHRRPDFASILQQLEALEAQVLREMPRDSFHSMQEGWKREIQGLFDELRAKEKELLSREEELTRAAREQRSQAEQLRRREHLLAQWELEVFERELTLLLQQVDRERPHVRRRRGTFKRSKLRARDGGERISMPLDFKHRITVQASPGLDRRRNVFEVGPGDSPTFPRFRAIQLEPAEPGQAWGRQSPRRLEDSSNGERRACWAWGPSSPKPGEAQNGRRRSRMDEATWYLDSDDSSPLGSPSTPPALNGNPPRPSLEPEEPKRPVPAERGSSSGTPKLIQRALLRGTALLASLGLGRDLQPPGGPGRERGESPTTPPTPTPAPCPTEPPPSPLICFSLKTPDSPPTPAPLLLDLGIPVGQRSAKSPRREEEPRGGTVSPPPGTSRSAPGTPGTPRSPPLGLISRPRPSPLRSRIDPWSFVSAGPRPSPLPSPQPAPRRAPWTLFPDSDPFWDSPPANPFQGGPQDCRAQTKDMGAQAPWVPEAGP

{"SMI": "COc1ccc(N(C(=O)Oc2c(C)cccc2C)c2ccnc(Nc3ccc(N4CCN(C)CC4)cc3)n2)c(OC)c1", "kinase still bound, per cent of control (%)": 8.8}
{"SMI": "CNC(=O)c1cc(Oc2ccc(NC(=O)Nc3ccc(Cl)c(C(F)(F)F)c3)cc2)ccn1", "kinase still bound, per cent of control (%)": 99}
{"SMI": "C=CC(=O)Nc1cc(-n2c(=O)ccc3cnc4ccc(-c5cn[nH]c5)cc4c32)ccc1C", "kinase still bound, per cent of control (%)": 100}
{"SMI": "N#CCNC(=O)c1ccc(-c2ccnc(Nc3ccc(N4CCOCC4)cc3)n2)cc1", "kinase still bound, per cent of control (%)": 95}
{"SMI": "CCN(CC)CCCCNc1ncc2cc(-c3cc(OC)cc(OC)c3)c(NC(=O)NC(C)(C)C)nc2n1", "kinase still bound, per cent of control (%)": 100}

###

molecular target: NEK7 (human); test: KINOMEscan competition binding; conditions: compound 10.0 µM

{"SMI": "COc1cc2ncnc(-n3nc(-c4ccccn4)nc3N)c2cc1OC", "TESTED ON": "NEK7 (human)", "kinase still bound, per cent of control [%]": 1.4}
{"SMI": "COc1cc(C(=O)N2CCC(N3CCN(C)CC3)CC2)ccc1Nc1ncc2c(n1)N(C)c1ccccc1C(=O)N2C", "TESTED ON": "NEK7 (human)", "kinase still bound, per cent of control [%]": 100}
{"SMI": "O=C1NC(=O)/C(=C/c2ccc3nccc(-c4ccncc4)c3c2)S1", "TESTED ON": "NEK7 (human)", "kinase still bound, per cent of control [%]": 88}
{"SMI": "CNC(=O)c1cc(Oc2ccc(NC(=O)Nc3ccc(Cl)c(C(F)(F)F)c3)cc2)ccn1", "TESTED ON": "NEK7 (human)", "kinase still bound, per cent of control [%]": 100}
{"SMI": "CCN(CC)CCCCNc1ncc2cc(-c3cc(OC)cc(OC)c3)c(NC(=O)NC(C)(C)C)nc2n1", "TESTED ON": "NEK7 (human)", "kinase still bound, per cent of control [%]": 100}
{"SMI": "O=c1cc(N2CCOCC2)oc2c(-c3cccc4c3sc3ccccc34)cccc12", "TESTED ON": "NEK7 (human)", "kinase still bound, per cent of control [%]": 100}
{"SMI": "CCN(CC)CCCCNc1ncc2c(n1)N(C)C(=O)N(c1c(Cl)c(OC)cc(OC)c1Cl)C2", "TESTED ON": "NEK7 (human)", "kinase still bound, per cent of control [%]": 100}
{"SMI": "O=C(Nc1cccc(Nc2ncc(Br)c(NCCc3cnc[nH]3)n2)c1)N1CCCC1", "TESTED ON": "NEK7 (human)", "kinase still bound, per cent of control [%]": 0.5}
{"SMI": "COCC(=O)NC/C=C/c1ccc2ncnc(Nc3ccc(Oc4ccc(C)nc4)c(C)c3)c2c1", "TESTED ON": "NEK7 (human)", "kinase still bound, per cent of control [%]": 73}

###

molecular target: CDK3 (human); test: KINOMEscan competition binding; conditions: compound 10.0 µM
Measured kinase still bound, per cent of control of individual entries

{"SMI": "CCN(CC)CCCCNc1ncc2c(n1)N(C)C(=O)N(c1c(Cl)c(OC)cc(OC)c1Cl)C2", "TESTED ON": "CDK3 (human)", "kinase still bound, per cent of control / %": 100}
{"SMI": "COc1cc(C(=O)N2CCC(N3CCN(C)CC3)CC2)ccc1Nc1ncc2c(n1)N(C)c1ccccc1C(=O)N2C", "TESTED ON": "CDK3 (human)", "kinase still bound, per cent of control / %": 100}
{"SMI": "COCC(=O)NC/C=C/c1ccc2ncnc(Nc3ccc(Oc4ccc(C)nc4)c(C)c3)c2c1", "TESTED ON": "CDK3 (human)", "kinase still bound, per cent of control / %": 100}
{"SMI": "CN(C)C/C=C/C(=O)Nc1ccc(C(=O)Nc2cccc(Nc3nccc(-c4cccnc4)n3)c2)cc1", "TESTED ON": "CDK3 (human)", "kinase still bound, per cent of control / %": 96}
{"SMI": "N#CCNC(=O)c1ccc(-c2ccnc(Nc3ccc(N4CCOCC4)cc3)n2)cc1", "TESTED ON": "CDK3 (human)", "kinase still bound, per cent of control / %": 100}
{"SMI": "NC(=O)Nc1cc(-c2cccc(F)c2)sc1C(=O)N[C@@H]1CCCNC1", "TESTED ON": "CDK3 (human)", "kinase still bound, per cent of control / %": 100}
{"SMI": "COc1cc2ncn(-c3cc(OCc4ccccc4C(F)(F)F)c(C(N)=O)s3)c2cc1OC", "TESTED ON": "CDK3 (human)", "kinase still bound, per cent of control / %": 100}
{"SMI": "CNC(=O)c1ccc(Nc2cc(Nc3ccccc3S(=O)(=O)C(C)C)c3cc[nH]c3n2)nc1", "TESTED ON": "CDK3 (human)", "kinase still bound, per cent of control / %": 100}
{"SMI": "C=CC(=O)Nc1ccc(CN(C(=O)Nc2c(Cl)c(OC)cc(OC)c2Cl)c2cc(Nc3ccc(N4CCN(C)CC4)cc3)ncn2)cc1", "TESTED ON": "CDK3 (human)", "kinase still bound, per cent of control / %": 100}
{"SMI": "O=c1cc(N2CCOCC2)oc2c(-c3cccc4c3sc3ccccc34)cccc12", "TESTED ON": "CDK3 (human)", "kinase still bound, per cent of control / %": 100}
{"SMI": "CNC(=O)c1cc(Oc2ccc(NC(=O)Nc3ccc(Cl)c(C(F)(F)F)c3)cc2)ccn1", "TESTED ON": "CDK3 (human)", "kinase still bound, per cent of control / %": 52}
{"SMI": "O=C(Nc1cccc(Nc2ncc(Br)c(NCCc3cnc[nH]3)n2)c1)N1CCCC1", "TESTED ON": "CDK3 (human)", "kinase still bound, per cent of control / %": 62}
{"SMI": "CCN(CC)CCCCNc1ncc2cc(-c3cc(OC)cc(OC)c3)c(NC(=O)NC(C)(C)C)nc2n1", "TESTED ON": "CDK3 (human)", "kinase still bound, per cent of control / %": 100}
{"SMI": "COc1ccc(N(C(=O)Oc2c(C)cccc2C)c2ccnc(Nc3ccc(N4CCN(C)CC4)cc3)n2)c(OC)c1", "TESTED ON": "CDK3 (human)", "kinase still bound, per cent of control / %": 100}
{"SMI": "COc1cc(N2CCN(C)CC2)ccc1Nc1ncc2c(n1)N(C)c1ccccc1C(=O)N2C", "TESTED ON": "CDK3 (human)", "kinase still bound, per cent of control / %": 100}
{"SMI": "Cc1n[nH]c2ccc(-c3cncc(OC[C@@H](N)Cc4c[nH]c5ccccc45)c3)cc12", "TESTED ON": "CDK3 (human)", "kinase still bound, per cent of control / %": 22}
{"SMI": "C=CC(=O)Nc1cc(-n2c(=O)ccc3cnc4ccc(-c5cn[nH]c5)cc4c32)ccc1C", "TESTED ON": "CDK3 (human)", "kinase still bound, per cent of control / %": 100}
{"SMI": "CCN1CCN(C(=O)Cc2ccc(Nc3ncc(F)c(Nc4ccc(C(=O)Nc5ccccc5Cl)cc4)n3)cc2)CC1", "TESTED ON": "CDK3 (human)", "kinase still bound, per cent of control / %": 92}
